As shown below, each of these compounds has a reported Impurity content (%) at 50° C., 75% humidity, 3 weeks value.
experiment: Water and atmospheric (storage) stability: total impurities by liquid chromatography after storage; type: physicochemical; conditions: 50° C., 75% humidity; 3 weeks
Structures can show the parent of a compound that is named as a salt.
Give your result in % as a bare value.

Previously resolved entries follow.
# compound, units_symbol, test_result
rows = [
    ("CCCOc1ccc(S(=O)(=O)N2CCN(CCO)CC2)cc1-c1nc2c(CCC)cn(CC)c2c(=O)[nH]1.Cl.Cl [SK-3530 dihydrochloride salt, reference compound]", "%", 0.42),
    ("CCCOc1ccc(S(=O)(=O)N2CCN(CCO)CC2)cc1-c1nc2c(CCC)cn(CC)c2c(=O)[nH]1 [SK-3530 hemitartrate salt]", "%", 0.13),
]

Consider the additional compound presented here.
Incoming: # lookup: Impurity content (%) at 50° C., 75% humidity, 3 weeks of CCCOc1ccc(S(=O)(=O)N2CCN(CCO)CC2)cc1-c1nc2c(CCC)cn(CC)c2c(=O)[nH]1 [SK-3530 gentisate salt]
Outgoing: 0.10

----------
As shown below, each of these compounds has a reported Impurity content (%) at 25° C., 75% humidity, Initial value.
assay: Water and atmospheric (storage) stability: total impurities by liquid chromatography after storage; type: physicochemical; details: 25° C., 75% humidity; initial
Where a name gives a salt, the structure may show the parent alone.
Give your result in % as a bare value.

# compound, units_symbol, test_result
records = [
    ("CCCOc1ccc(S(=O)(=O)N2CCN(CCO)CC2)cc1-c1nc2c(CCC)cn(CC)c2c(=O)[nH]1 [SK-3530 citrate salt]", "%", 0.12),
]

Incoming: # lookup: Impurity content (%) at 25° C., 75% humidity, Initial of CCCOc1ccc(S(=O)(=O)N2CCN(CCO)CC2)cc1-c1nc2c(CCC)cn(CC)c2c(=O)[nH]1.Cl.Cl [SK-3530 dihydrochloride salt, reference compound]
Outgoing: 0.20

Incoming: # lookup: Impurity content (%) at 25° C., 75% humidity, Initial of CCCOc1ccc(S(=O)(=O)N2CCN(CCO)CC2)cc1-c1nc2c(CCC)cn(CC)c2c(=O)[nH]1 [SK-3530 maleate salt]
Outgoing: 0.12

Incoming: # lookup: Impurity content (%) at 25° C., 75% humidity, Initial of CCCOc1ccc(S(=O)(=O)N2CCN(CCO)CC2)cc1-c1nc2c(CCC)cn(CC)c2c(=O)[nH]1 [SK-3530 hemitartrate salt]
Outgoing: 0.07

Incoming: # lookup: Impurity content (%) at 25° C., 75% humidity, Initial of CCCOc1ccc(S(=O)(=O)N2CCN(CCO)CC2)cc1-c1nc2c(CCC)cn(CC)c2c(=O)[nH]1 [SK-3530 gentisate salt]
Outgoing: 0.09

Incoming: # lookup: Impurity content (%) at 25° C., 75% humidity, Initial of CCCOc1ccc(S(=O)(=O)N2CCN(CCO)CC2)cc1-c1nc2c(CCC)cn(CC)c2c(=O)[nH]1 [SK-3530 fumarate salt]
Outgoing: 0.02

----------
assay: Water and atmospheric (storage) stability: total impurities by liquid chromatography after storage; assay type: physicochemical; conditions: 50° C., 75% humidity; 1 week
Counter-ions that a name gives are not always drawn.
Each entry gets F if its Impurity content (%) at 50° C., 75% humidity, 1 week stays under 0.1%, and T if its Impurity content (%) at 50° C., 75% humidity, 1 week is 0.1% or above.

Take a look at these entries with their results.
# compound, cat
records = [
    ("CCCOc1ccc(S(=O)(=O)N2CCN(CCO)CC2)cc1-c1nc2c(CCC)cn(CC)c2c(=O)[nH]1 [SK-3530 hemitartrate salt]", "T"),
    ("CCCOc1ccc(S(=O)(=O)N2CCN(CCO)CC2)cc1-c1nc2c(CCC)cn(CC)c2c(=O)[nH]1 [SK-3530 citrate salt]", "T"),
    ("CCCOc1ccc(S(=O)(=O)N2CCN(CCO)CC2)cc1-c1nc2c(CCC)cn(CC)c2c(=O)[nH]1 [SK-3530 maleate salt]", "T"),
    ("CCCOc1ccc(S(=O)(=O)N2CCN(CCO)CC2)cc1-c1nc2c(CCC)cn(CC)c2c(=O)[nH]1 [SK-3530 gentisate salt]", "F"),
    ("CCCOc1ccc(S(=O)(=O)N2CCN(CCO)CC2)cc1-c1nc2c(CCC)cn(CC)c2c(=O)[nH]1.Cl.Cl [SK-3530 dihydrochloride salt, reference compound]", "T"),
]

Incoming: Item CCCOc1ccc(S(=O)(=O)N2CCN(CCO)CC2)cc1-c1nc2c(CCC)cn(CC)c2c(=O)[nH]1 [SK-3530 fumarate salt] with Impurity content (%) at 50° C., 75% humidity, 1 week of 0.1% or above?
Outgoing: F

----------
Test: Water and atmospheric (storage) stability: total impurities by liquid chromatography after storage
Assay type: physicochemical
Conditions: 25° C., 75% humidity; 1 week
Method: This test is for confirming the storage stability of SK-3530 salt. A sufficient stability is required to process a drug into a particular medication form. […] The following Table 1 (25° C., 75% humidity), Table 2 (40° C., 60% humidity) and Table 3 (50° C., 75% humidity) show the content of total impurities measured by liquid chromatography after storing dihydrochloride (2HCl), gentisate, maleate, citrate, fumarate and hemitartrate salts of SK-3530 for 1 week and 3 weeks.
Where a name gives a salt, the structure may show the parent alone.
As shown below, each of these compounds has a reported Impurity content (%) at 25° C., 75% humidity, 1 week value.
Give your result in % as a bare value.

# compound, units_symbol, test_result
rows = [
    ("CCCOc1ccc(S(=O)(=O)N2CCN(CCO)CC2)cc1-c1nc2c(CCC)cn(CC)c2c(=O)[nH]1 [SK-3530 hemitartrate salt]", "%", 0.09),
    ("CCCOc1ccc(S(=O)(=O)N2CCN(CCO)CC2)cc1-c1nc2c(CCC)cn(CC)c2c(=O)[nH]1 [SK-3530 fumarate salt]", "%", 0.02),
]

Incoming: # lookup: Impurity content (%) at 25° C., 75% humidity, 1 week of CCCOc1ccc(S(=O)(=O)N2CCN(CCO)CC2)cc1-c1nc2c(CCC)cn(CC)c2c(=O)[nH]1 [SK-3530 citrate salt]
Outgoing: 0.15

Incoming: # lookup: Impurity content (%) at 25° C., 75% humidity, 1 week of CCCOc1ccc(S(=O)(=O)N2CCN(CCO)CC2)cc1-c1nc2c(CCC)cn(CC)c2c(=O)[nH]1 [SK-3530 maleate salt]
Outgoing: 0.12

Incoming: # lookup: Impurity content (%) at 25° C., 75% humidity, 1 week of CCCOc1ccc(S(=O)(=O)N2CCN(CCO)CC2)cc1-c1nc2c(CCC)cn(CC)c2c(=O)[nH]1 [SK-3530 gentisate salt]
Outgoing: 0.09

Incoming: # lookup: Impurity content (%) at 25° C., 75% humidity, 1 week of CCCOc1ccc(S(=O)(=O)N2CCN(CCO)CC2)cc1-c1nc2c(CCC)cn(CC)c2c(=O)[nH]1.Cl.Cl [SK-3530 dihydrochloride salt, reference compound]
Outgoing: 0.24

----------
assay: Photostability test (UV and visible light), impurity content and color change; format: physicochemical; details: total UV radiation 200 W·h/m^2; 25° C., 60% humidity
Structures can show the parent of a compound that is named as a salt.
measured_metric: Color change, UV

Previously resolved entries follow.
# compound, measured_metric, test_result
records = [
    ("CCCOc1ccc(S(=O)(=O)N2CCN(CCO)CC2)cc1-c1nc2c(CCC)cn(CC)c2c(=O)[nH]1.Cl.Cl [SK-3530 dihydrochloride salt, reference compound]", "Color change, UV", "Brown"),
    ("CCCOc1ccc(S(=O)(=O)N2CCN(CCO)CC2)cc1-c1nc2c(CCC)cn(CC)c2c(=O)[nH]1 [SK-3530 fumarate salt]", "Color change, UV", "Pale yellow"),
    ("CCCOc1ccc(S(=O)(=O)N2CCN(CCO)CC2)cc1-c1nc2c(CCC)cn(CC)c2c(=O)[nH]1 [SK-3530 maleate salt]", "Color change, UV", "White"),
    ("CCCOc1ccc(S(=O)(=O)N2CCN(CCO)CC2)cc1-c1nc2c(CCC)cn(CC)c2c(=O)[nH]1 [SK-3530 citrate salt]", "Color change, UV", "White"),
    ("CCCOc1ccc(S(=O)(=O)N2CCN(CCO)CC2)cc1-c1nc2c(CCC)cn(CC)c2c(=O)[nH]1 [SK-3530 hemitartrate salt]", "Color change, UV", "White"),
]

Consider the additional compound presented here.
Incoming: # lookup: Color change, UV of CCCOc1ccc(S(=O)(=O)N2CCN(CCO)CC2)cc1-c1nc2c(CCC)cn(CC)c2c(=O)[nH]1 [SK-3530 gentisate salt]
Outgoing: Pale yellow
